# Target Or Test System: UniProtKB Q7K6A1
# Sequence (Q7K6A1 entry or part of it): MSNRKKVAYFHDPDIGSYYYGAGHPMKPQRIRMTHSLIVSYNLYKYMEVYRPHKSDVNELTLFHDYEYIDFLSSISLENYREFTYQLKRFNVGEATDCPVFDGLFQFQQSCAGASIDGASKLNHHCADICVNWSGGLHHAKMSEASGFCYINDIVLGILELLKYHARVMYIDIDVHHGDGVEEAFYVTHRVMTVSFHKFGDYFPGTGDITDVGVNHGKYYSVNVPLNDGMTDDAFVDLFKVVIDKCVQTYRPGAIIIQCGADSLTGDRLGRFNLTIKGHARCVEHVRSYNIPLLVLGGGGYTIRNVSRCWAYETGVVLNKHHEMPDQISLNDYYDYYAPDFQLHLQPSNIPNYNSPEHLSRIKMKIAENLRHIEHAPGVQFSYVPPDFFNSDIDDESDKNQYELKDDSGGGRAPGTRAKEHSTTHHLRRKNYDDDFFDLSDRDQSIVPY
# Test Name: PfHDAC1 assay
pEC50: −log10 of the molar value.
Readout: pEC50

Recorded pEC50 of CCC(C)C1NC(=O)C(Cc2ccccc2)NC(=O)C(CCCCCC(=O)C2CO2)NC(=O)C2CCCCN2C1=O (stereo not shown) , please. > 9.70

###

Catalogue of pEC50 readings, one per entry.
# System: P. falciparum Dd2
# Test Name: SYBR Green I-based fluorescence assay, intraerythrocytic growth inhibition
# Type: cell-based, Plasmodium falciparum
# Assay Conditions: Plasmodium falciparum; Top hits from pure compound library; chloroquine-resistant P. falciparum Dd2, 72 h; read-out: EC50
Here pEC50 is given on a logarithmic scale as minus log10 of the concentration in mol/L.

Example cases with answers are listed next.
Compound	Target Or Test System	pEC50
CC[C@H]1/C=C/C=C/C[C@@H](C)[C@H](O)[C@@](C)(O)C(=O)[C@@H](C)[C@H](O)[C@@H](C)C(=O)[C@@H](C)[C@H](O)[C@@H](C)/C=C/C(=O)O[C@@H]2[C@H](C)[C@H](CC1)O[C@]1(CC[C@H](C)[C@H](C[C@@H](C)O)O1)[C@H]2C	P. falciparum Dd2	6.44
CC(C)[C@H]1CC[C@@](O)(COC(=O)/C(=C/[C@@H]2[C@@H](C(C)C)CCC3(O)COC(=O)[C@@H]23)CO)[C@H]2C(=O)OCC(C(=O)O)=C[C@H]12 (stereo partly shown)	P. falciparum Dd2	6.44
COC1=CC(c2ccc[nH]2)=N/C1=C/NCC(C)C	P. falciparum Dd2	6.74

Here's the next entry for you.
Param readout= pEC50; system= P. falciparum Dd2; entry= Oc1cc(O)c2c(c1)O[C@H](c1ccc(O)c(O)c1)[C@@H](O)C2 ; returns value. 7.33
